experimental target: human RXFP1 (Homo sapiens, UniProt Q9HBX9)
Construct: expressed in transfected cells
Sequence (Q9HBX9 whole entry): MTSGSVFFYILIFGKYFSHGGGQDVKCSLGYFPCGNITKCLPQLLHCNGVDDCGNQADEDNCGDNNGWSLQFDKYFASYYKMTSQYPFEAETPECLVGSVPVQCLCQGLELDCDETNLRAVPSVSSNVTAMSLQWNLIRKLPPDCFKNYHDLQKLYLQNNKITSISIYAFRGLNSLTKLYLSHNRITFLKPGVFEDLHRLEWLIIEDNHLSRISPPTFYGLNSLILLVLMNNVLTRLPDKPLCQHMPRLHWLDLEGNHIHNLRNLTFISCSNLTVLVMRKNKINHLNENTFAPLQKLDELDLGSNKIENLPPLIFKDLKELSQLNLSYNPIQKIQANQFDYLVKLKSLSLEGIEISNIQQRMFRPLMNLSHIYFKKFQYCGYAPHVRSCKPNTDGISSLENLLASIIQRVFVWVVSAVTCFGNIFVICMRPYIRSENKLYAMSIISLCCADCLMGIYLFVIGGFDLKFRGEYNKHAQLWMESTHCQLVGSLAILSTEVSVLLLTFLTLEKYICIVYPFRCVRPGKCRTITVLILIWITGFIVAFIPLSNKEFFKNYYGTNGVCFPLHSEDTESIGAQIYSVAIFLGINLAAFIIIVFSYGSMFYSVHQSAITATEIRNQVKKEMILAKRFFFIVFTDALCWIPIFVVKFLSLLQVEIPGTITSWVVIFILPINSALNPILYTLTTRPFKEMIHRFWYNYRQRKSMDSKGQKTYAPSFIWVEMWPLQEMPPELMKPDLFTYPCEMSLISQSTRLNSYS
assay notes: RXFP1 cAMP assay (hRXFP1 HEK293 cAMP assay, HTRF)
Assay type: cell-based
test context: HEK293 cells stably expressing human RXFP1, 30 min at room temperature, read-out: cAMP hRXFP1 HEK293 Assay EC50
pEC50: −log10 of the molar value.
Rule: 1 for pEC50 not less than 7, -1 for anything less.

Exercise: Would you say COc1ccc(-c2cc(C(NC(=O)C3CCOCC3)C(=O)O)ccc2F)cc1C(=O)N[C@H]1[C@@H](C(=O)Nc2ccc(F)c(C(F)(F)F)c2)[C@H]2CC[C@@H]1/C2=C\C1CC(F)(F)C1 (some centres unmarked) shows pEC50 at minimum 7?
Solution: 1

Exercise: # check: pEC50 of COc1cc(F)c(F)cc1C(=O)N[C@@H]1C2CCC(/C2=C2\CCc3ccccc32)[C@@H]1C(=O)Nc1ccc(F)c(C(F)(F)F)c1 (some centres unmarked) is greater than or equal to 7
Solution: -1

Exercise: Quick check, pEC50 >= 7? COc1c(F)cc(C2=NOC3CC(CO)CC23)cc1C(=O)N[C@H]1[C@@H](C(=O)NC23CC(C)(C2)C3)[C@H]2CC[C@@H]1/C2=C\C1CC1 (some centres unmarked)
Solution: 1

Exercise: Form field: pEC50 at least 7? Entry: COc1cc(F)c(F)cc1C(=O)N[C@@H]1C2CCC(/C2=C/c2ccco2)[C@@H]1C(=O)Nc1ccc(F)c(C(F)(F)F)c1 (some centres unmarked)
Solution: -1

Exercise: Reported pEC50 reaches at least 7 for COc1ccc(-c2ccnc3c2ncn3CC(=O)O)cc1C(=O)N[C@@H]1C2CCC(/C2=C/C(F)(F)F)[C@@H]1C(=O)Nc1ccc(F)c(C(F)(F)F)c1 (some centres unmarked) ?
Solution: 1

Exercise: Hello, I need to know if COc1ccc(C2CC(O)C(=O)N2C)cc1C(=O)N[C@@H]1C2CCC(/C2=C/C2CC2)[C@@H]1C(=O)Nc1ccc(F)c(C(F)(F)F)c1 (single isomer, unassigned) has measured pEC50 not below 7. Thanks!
Solution: -1

Exercise: API: above_or_equal(metric=pEC50, cutoff=7) for item O=C(NC1CCC1)OC(c1ccc(F)c(-c2ccc(OCCO)c(C(=O)N[C@H]3[C@@H](C(=O)Nc4ccc(F)c(C(F)(F)F)c4)[C@H]4CC[C@@H]3/C4=C\C3CC3)c2)c1)C(F)(F)F (some centres unmarked)
Solution: 1

Exercise: Check this compound for pEC50 at or above 7: COc1ccc(C2=NOC3COCC23)cc1C(=O)N[C@H]1[C@@H](C(=O)NC2CC=CC2)[C@H]2CC[C@@H]1/C2=C\C1CC1 (some centres unmarked)
Solution: 1

Exercise: Item COc1c(F)cc(C2=NOC3CC(CO)CC23)cc1C(=O)N[C@H]1[C@@H](C(=O)N[C@H](C)C2(C(F)(F)F)CC2)[C@H]2CC[C@@H]1/C2=C\C1CC1 (some centres unmarked) with pEC50 of 7 or above?
Solution: 1

Exercise: Please check the record "COc1ccc(-c2cc([C@H](OC(=O)NC3CC3)C(F)(F)F)ccc2F)cc1C(=O)N[C@H]1[C@@H](C(=O)Nc2ccc(F)c(C(F)(F)F)c2)[C@H]2CC[C@@H]1/C2=C\C(C)C" and state if its pEC50 is at or above 7.
Solution: 1

Exercise: Quick check, pEC50 >= 7? COc1ccc(C2=NOC3COCC23)cc1C(=O)N[C@H]1[C@@H](C(=O)N[C@@H](C)c2ccccc2C(F)(F)F)[C@H]2CC[C@@H]1/C2=C\C1CC1 (some centres unmarked)
Solution: -1
